system under test: Serine/threonine-protein kinase Nek7 (Homo sapiens) (UniProt Q8TDX7)
Sequence (Q8TDX7 whole entry, looked up): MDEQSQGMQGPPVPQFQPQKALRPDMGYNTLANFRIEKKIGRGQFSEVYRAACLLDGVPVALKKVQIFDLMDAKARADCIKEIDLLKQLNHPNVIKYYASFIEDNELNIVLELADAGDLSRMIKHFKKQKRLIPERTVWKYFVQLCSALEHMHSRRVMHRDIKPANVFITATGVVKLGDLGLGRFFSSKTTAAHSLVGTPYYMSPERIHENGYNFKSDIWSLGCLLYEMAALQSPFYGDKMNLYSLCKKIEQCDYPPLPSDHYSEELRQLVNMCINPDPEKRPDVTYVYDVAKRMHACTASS
condition set: at 10 µM
Description: Millipore: Percentage of residual kinase activity of NEK7 at 10uM relative to control. Control inhibitor: Phosphoric acid* at 0.3uM. Buffer: 8 mM MOPS pH 7.0, 0.2 mM EDTA
measured quantity: residual activity (%)
Just the number in %, nothing appended.

Oc1cccc(-c2nc(N3CCOCC3)c3oc4ncccc4c3n2)c1 = 96
O=C1Cc2c([nH]c3ccc(Br)cc23)-c2ccccc2N1 = 94
N#C/C(=C\c1ccc(O)c(O)c1)C(=O)NCc1ccccc1 = 125
COc1cc2c(cc1OC)-c1n[nH]c(Nc3cccc(F)c3)c1C2 = 113
Nc1ncnc2[nH]nc(Nc3ccc(F)cc3)c12 = 96
Nc1ncnc2c1c(-c1ccc(Oc3ccccc3)cc1)cn2C1CCCC1 = 105

Lookup: Fill in the blank: the reported residual activity of `CCCCc1c(-c2ccc(OC)cc2)[nH]c2nccnc12` is ____.
Found: 112

Lookup: Entry O=C(NC(NC(=S)Nc1ccc(F)c([N+](=O)[O-])c1)C(Cl)(Cl)Cl)C(c1ccccc1)c1ccccc1 (configuration not stated) please
Found: 96

* * *

system under test: AMP-activated protein kinase, AMPK (Homo sapiens) (UniProt P54646+O43741+P54619+Q9UGJ0+Q9Y478+Q13131+Q9UGI9)
condition set: at 10 µM
Below, each entry is listed alongside its reported residual activity.
Expressed in %, but write only the number.

Completed entries (count: 5):
COc1cc2ncnc(Nc3cccc(Cl)c3)c2cc1OC = 74
COc1cc2c(cc1OC)-c1n[nH]c(Nc3cccc(F)c3)c1C2 = 69
COc1ccc2c(c1)c(C1=C(c3c[nH]c4ccccc34)C(=O)NC1=O)cn2CCCN(C)C = 5
COc1ccc(Cl)cc1NC(=O)Nc1cc(C)nc2ccccc12 = 91
CCCCc1c(-c2ccc(O)cc2)[nH]c2nccnc12 = 67

Lookup: I'd like to know its residual activity. The molecule in question is `CC(C)(C)n1nc(Cc2cccc3ccccc23)c2c(N)ncnc21`
Found: 74

Lookup: Follow-up entry: `O=C(CCCc1ccc(-c2ccccc2F)cc1)Nc1ccc(O)cc1`
Found: 99

Lookup: Try this molecule too: `COc1ccc(-c2cnc3c(-c4ccsc4)cnn3c2)cc1`
Found: 79

* * *

system under test: Protein kinase C delta type (Homo sapiens)
condition set: at 10 µM
Catalogue of compounds with associated residual activity
Please state the figure in %; there is no need to write the unit.

O=C1Nc2ccc(Cl)cc2/C1=C/c1cc(Cl)c(O)c(Cl)c1 = 100

Lookup: Please give the measured residual activity for this compound: `Nc1n[nH]c2nc3ccccc3nc12`
Found: 68

Lookup: Param item: `O=C(c1cc2cc(O)ccc2[nH]1)c1cc2cc(O)ccc2[nH]1`
Found: 83

* * *

Measured residual activity, listed per entry for reference.
system under test: Ribosomal protein S6 kinase alpha-5 (Homo sapiens) (UniProt O75582)
Sequence (O75582 whole entry, looked up): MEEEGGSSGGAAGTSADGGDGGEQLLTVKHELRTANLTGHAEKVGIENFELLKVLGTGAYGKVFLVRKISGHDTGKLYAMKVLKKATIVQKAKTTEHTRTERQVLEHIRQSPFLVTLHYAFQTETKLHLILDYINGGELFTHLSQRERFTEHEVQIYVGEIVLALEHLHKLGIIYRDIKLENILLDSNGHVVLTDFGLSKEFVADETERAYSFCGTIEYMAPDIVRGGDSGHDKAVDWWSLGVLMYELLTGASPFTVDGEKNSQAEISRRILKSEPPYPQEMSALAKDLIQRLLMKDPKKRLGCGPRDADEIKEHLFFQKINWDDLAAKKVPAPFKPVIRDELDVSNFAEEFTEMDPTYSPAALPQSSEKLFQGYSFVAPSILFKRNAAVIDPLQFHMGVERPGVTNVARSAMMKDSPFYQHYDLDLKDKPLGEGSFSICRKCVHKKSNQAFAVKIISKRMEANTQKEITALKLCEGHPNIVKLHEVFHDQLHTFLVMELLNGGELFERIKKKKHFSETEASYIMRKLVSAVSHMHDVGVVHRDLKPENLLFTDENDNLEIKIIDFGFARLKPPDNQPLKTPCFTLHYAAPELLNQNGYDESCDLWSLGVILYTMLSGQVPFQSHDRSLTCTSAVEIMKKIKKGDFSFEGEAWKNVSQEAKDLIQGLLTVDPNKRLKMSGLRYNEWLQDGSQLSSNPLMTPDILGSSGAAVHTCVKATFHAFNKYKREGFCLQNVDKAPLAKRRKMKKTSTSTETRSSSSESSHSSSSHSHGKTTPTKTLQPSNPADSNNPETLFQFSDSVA
condition set: at 1 µM
Please give a number only; it is taken to be in %.

O=C1NC(=O)C(c2cn(CCCn3ccnc3)c3ccccc23)=C1Nc1ccccc1 = 39
CC(C)c1nn(-c2c(Cl)cccc2Cl)c2nc(Cc3ccc(OCCO)cc3)[nH]c(=O)c12 = 128
CC(C)N(CCC(=O)c1ccc2ccccc2c1)Cc1ccccc1 = 126
N#C/C(=C1/Nc2ccccc2S1)c1ccnc(NCCc2cccnc2)n1 = 112
O=C1Nc2ccccc2/C1=C\c1c(Cl)[nH]c2ccccc12 = 100
CCCCc1c(-c2ccc(OC)cc2)[nH]c2nccnc12 = 111
O=C1NC(=O)C(c2c[nH]c3ccccc23)=C1c1c[nH]c2ccccc12 = 73
COc1ccc2c(c1)c(C1=C(c3c[nH]c4ccccc34)C(=O)NC1=O)cn2CCCN(C)C = 37
O=C1C(Cl)=C(N2C(=O)CCC2=O)C(=O)c2ccccc21 = 101
CCN(CC)CCNC(=O)c1c(C)[nH]c(/C=C2\C(=O)Nc3ccc(Cl)cc32)c1C = 80

Lookup: What value of residual activity has been recorded for this entry: `c1ccc(-c2cnc(Nc3ccc(OCCN4CCCC4)cc3)s2)cc1`
Found: 128

Lookup: Same question, `COc1ccc(CNC(=O)Nc2ncc([N+](=O)[O-])s2)cc1` this time
Found: 114

Lookup: Do the same for `Nc1ncnc2[nH]nc(Nc3ccc(F)cc3)c12` please
Found: 117

Lookup: One more compound: `O=S(=O)(NCCNC/C=C/c1ccc(Br)cc1)c1cccc2cnccc12`
Found: 19

Lookup: Same question, `COc1ccc(COc2ccc(Cc3cnc(N)nc3N)cc2OC)cc1` this time
Found: 131

Lookup: Thanks! And `O=c1cc(N2CCOCC2)oc2c1ccc1ccccc12` ?
Found: 125

Lookup: How about this compound: `COc1cc2nccc(Oc3ccc(NC(=O)Nc4cc(C)on4)c(Cl)c3)c2cc1OC`
Found: 107

Lookup: Try this compound next: `Oc1cccc(-c2nc(N3CCOCC3)c3oc4ncccc4c3n2)c1`
Found: 130

Lookup: Now give it for `COc1cc2ncnc(Nc3cccc(Cl)c3)c2cc1OC` too.
Found: 103

Lookup: Same again, this time with `CN(C)S(=O)(=O)c1ccc2c(c1)/C(=C/c1cc3c([nH]1)CCCC3)C(=O)N2`
Found: 115

Lookup: Another: `O=C(Nc1nc2ccccc2n1CCN1CCOCC1)c1cccc([N+](=O)[O-])c1`
Found: 124

Lookup: Record: `CC(C)[C@H](CO)Nc1nc(Nc2cc(N)cc(Cl)c2)c2ncn(C(C)C)c2n1`
Found: 118

Lookup: What would you report for `CC(C)(C)n1nc(Cc2cccc3ccccc23)c2c(N)ncnc21` ?
Found: 120

* * *

system under test: Cyclin-dependent kinase 1/cyclin B1 (Homo sapiens) (UniProt P06493+P14635)
Sequence (P06493 whole entry, looked up): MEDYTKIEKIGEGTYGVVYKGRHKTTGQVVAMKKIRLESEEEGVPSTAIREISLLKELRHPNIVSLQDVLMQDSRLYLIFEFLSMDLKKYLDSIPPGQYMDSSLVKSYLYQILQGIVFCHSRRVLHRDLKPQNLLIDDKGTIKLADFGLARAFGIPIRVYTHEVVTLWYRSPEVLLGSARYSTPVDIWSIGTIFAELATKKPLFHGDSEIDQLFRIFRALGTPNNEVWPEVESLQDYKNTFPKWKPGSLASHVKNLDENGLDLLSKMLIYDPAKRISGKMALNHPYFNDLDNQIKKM
Sequence (P14635 whole entry, looked up): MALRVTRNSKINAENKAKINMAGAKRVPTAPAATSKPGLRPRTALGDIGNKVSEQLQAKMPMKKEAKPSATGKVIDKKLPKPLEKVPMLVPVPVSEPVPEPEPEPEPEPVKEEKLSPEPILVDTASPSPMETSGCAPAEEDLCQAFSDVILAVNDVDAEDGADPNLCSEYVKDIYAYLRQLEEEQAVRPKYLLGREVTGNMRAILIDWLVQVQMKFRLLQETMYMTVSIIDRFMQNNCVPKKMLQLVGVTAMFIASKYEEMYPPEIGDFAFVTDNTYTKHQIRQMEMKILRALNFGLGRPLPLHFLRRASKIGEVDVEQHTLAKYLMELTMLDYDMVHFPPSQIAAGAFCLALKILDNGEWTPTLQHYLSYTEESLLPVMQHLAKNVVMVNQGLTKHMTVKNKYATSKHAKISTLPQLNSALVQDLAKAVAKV
condition set: at 10 µM
measured quantity: residual activity (%)
Numeric only. Scale: %

Take a look at these entries with their results.
NCCNc1ncc(C(N)=O)c(Nc2cccc(C(F)(F)F)c2)n1 = 43
O=C1NC(=O)C(c2cn(CCCO)c3ncccc23)=C1c1cnccn1 = 63
O=C1Nc2ccc(Cl)cc2/C1=C/c1cc(Cl)c(O)c(Cl)c1 = 97
NC(=O)Nc1sc(-c2ccc(F)cc2)cc1C(N)=O = 57
COc1ccc(COc2ccc(Cc3cnc(N)nc3N)cc2OC)cc1 = 109

Lookup: Param item = `CC(C)c1nn(-c2c(Cl)cccc2Cl)c2nc(Cc3ccc(OCCO)cc3)[nH]c(=O)c12` ; retrieve measured residual activity.
Found: 0

Lookup: Try this molecule next: CSc1nc(-c2ccc(F)cc2)c(-c2ccnc(NC(C)c3ccccc3)c2)[nH]1 (centres undefined)
Found: 86

Lookup: Follow-up entry: `O=C1NC(=O)C(c2c[nH]c3ccccc23)=C1c1c[nH]c2ccccc12`
Found: 39

Lookup: Another: `O=C(Nc1nc2ccccc2n1CCN1CCOCC1)c1cccc([N+](=O)[O-])c1`
Found: 103

* * *

system under test: Tyrosine-protein kinase receptor UFO (Homo sapiens) (UniProt P30530)
Sequence (P30530 whole entry): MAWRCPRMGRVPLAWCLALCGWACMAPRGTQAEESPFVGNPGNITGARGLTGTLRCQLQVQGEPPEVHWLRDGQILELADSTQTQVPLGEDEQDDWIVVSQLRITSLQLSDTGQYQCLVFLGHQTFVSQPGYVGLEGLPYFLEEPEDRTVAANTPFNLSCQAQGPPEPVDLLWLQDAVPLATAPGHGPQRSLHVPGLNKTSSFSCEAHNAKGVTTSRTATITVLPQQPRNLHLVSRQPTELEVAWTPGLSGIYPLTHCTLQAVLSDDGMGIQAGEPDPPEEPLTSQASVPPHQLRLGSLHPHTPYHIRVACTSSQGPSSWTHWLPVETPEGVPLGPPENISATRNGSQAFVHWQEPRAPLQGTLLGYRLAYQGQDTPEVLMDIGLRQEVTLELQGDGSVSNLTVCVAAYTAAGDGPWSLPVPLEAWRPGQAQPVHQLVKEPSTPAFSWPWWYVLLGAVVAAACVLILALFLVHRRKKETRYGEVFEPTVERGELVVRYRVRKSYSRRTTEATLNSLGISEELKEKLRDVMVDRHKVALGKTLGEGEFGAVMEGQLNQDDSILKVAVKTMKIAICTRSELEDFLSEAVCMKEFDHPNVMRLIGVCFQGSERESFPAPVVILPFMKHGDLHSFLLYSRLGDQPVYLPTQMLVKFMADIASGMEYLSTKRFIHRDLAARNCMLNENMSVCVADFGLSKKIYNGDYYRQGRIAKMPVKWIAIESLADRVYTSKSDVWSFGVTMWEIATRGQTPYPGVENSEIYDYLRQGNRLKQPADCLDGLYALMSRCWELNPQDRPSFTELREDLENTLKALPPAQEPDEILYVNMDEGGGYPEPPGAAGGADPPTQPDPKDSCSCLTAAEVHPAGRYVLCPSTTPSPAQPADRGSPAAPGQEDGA
condition set: at 1 µM
The entries below come with measured residual activity values attached.
Kindly answer with a numeric value in %, unit omitted.

Here are 4 compounds together with their reported answers.
O=C1Nc2ccc(Cl)cc2/C1=C/c1cc(Cl)c(O)c(Cl)c1 = 71
Nc1nc(Nc2ccc(S(N)(=O)=O)cc2)nn1C(=O)c1c(F)cccc1F = 56
NC(=O)c1ccc(-c2nc(-c3ccc4c(c3)OCCO4)c(-c3ccccn3)[nH]2)cc1 = 77
Nc1n[nH]c2nc3ccccc3nc12 = 94

Lookup: // query residual activity value for entry `NC(=O)Nc1sc(-c2ccc(F)cc2)cc1C(N)=O`
Found: 77

Lookup: Item: `CCOC(=O)c1c(C)[nH]c(/C=C2\C(=O)Nc3ccccc32)c1C`
Found: 84

Lookup: For `COc1cc2nccc(Oc3ccc(NC(=S)NC(=O)c4ccccc4C)cc3)c2cc1OC` then?
Found: 11

Lookup: Another compound: `COc1ccc(Cl)cc1NC(=O)Nc1cc(C)nc2ccccc12`
Found: 98

Lookup: Okay, and `O=C(O)/C=C/c1cc(Br)c(Br)c(Br)c1Br` ?
Found: 91

Lookup: Now consider `COc1cc2ncnc(Nc3cccc(Cl)c3)c2cc1OC` and answer again.
Found: 102

Lookup: Do the same for `NCCNc1ncc(C(N)=O)c(Nc2cccc(C(F)(F)F)c2)n1` please
Found: 74

* * *

system under test: Casein kinase II subunit alpha' (Homo sapiens) (UniProt P19784);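 further: residual kinase activity of CSNK2A2 expressed as percent of untreated control, so lower values mean stronger inhibition, with Jnk Inhibitor II at 100 µM as reference inhibitor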
Sequence (P19784 whole entry, looked up): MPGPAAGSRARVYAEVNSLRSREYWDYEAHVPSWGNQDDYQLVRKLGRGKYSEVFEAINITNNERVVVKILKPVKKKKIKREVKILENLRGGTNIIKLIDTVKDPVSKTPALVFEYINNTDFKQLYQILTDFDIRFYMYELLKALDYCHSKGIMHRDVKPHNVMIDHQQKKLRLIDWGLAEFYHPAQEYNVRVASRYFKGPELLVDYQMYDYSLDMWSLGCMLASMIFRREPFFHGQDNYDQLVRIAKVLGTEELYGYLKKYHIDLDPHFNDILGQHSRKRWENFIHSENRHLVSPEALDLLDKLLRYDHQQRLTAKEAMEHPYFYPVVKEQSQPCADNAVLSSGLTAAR
condition set: at 1 µM
measured quantity: residual activity (%)
Lab book: enter the figure in %, no units written.

Please review the following examples before continuing.
Oc1cccc(-c2nc(N3CCOCC3)c3oc4ncccc4c3n2)c1 = 140
COc1ccc(COc2ccc(Cc3cnc(N)nc3N)cc2OC)cc1 = 110

Query molecule follows.
Lookup: Field request: residual activity | item: `Cn1c2ccccc2c2c3c(c4c5ccccc5n(CCC#N)c4c21)CNC3=O`
Found: 129

* * *

Item-by-item account of residual activity
system under test: Serine/threonine-protein kinase WNK2 (Homo sapiens);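 further: residual WNK2 kinase activity expressed as percent of uninhibited control, assayed in MOPS buffer at pH 7.0 containing EDTA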
condition set: at 1 µM
Description: Millipore: Percentage of residual kinase activity of WNK2 at 1uM relative to control. Control inhibitor: Phosphoric acid* at 0.3uM. Buffer: 8 mM MOPS pH 7.0, 0.2 mM EDTA
Output spec: scalar in %, unitless text.

Example cases with answers are listed next.
N#C/C(=C1/Nc2ccccc2S1)c1ccnc(NCCc2cccnc2)n1 = 63
O=C1NC(=O)c2c1c1c3ccccc3[nH]c1n1cncc21 = 82
Nc1nc(Nc2ccc(S(N)(=O)=O)cc2)nn1C(=O)c1c(F)cccc1F = 96
c1ccc(-c2cnc(Nc3ccc(OCCN4CCCC4)cc3)s2)cc1 = 123

Lookup: Given the compound `O=C(CCCc1ccc(-c2ccccc2F)cc1)Nc1ccc(O)cc1` , what is its reported residual activity?
Found: 104
